- system_tested: Nuclear receptor ROR-alpha (Homo sapiens)
- assay_name: activators of orphan receptor RORA, primary screen, cell-based, luminescence (AID 560);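 note: 0% = DMSO-treated RORA cells and 100% = added signal equal to DMSO minus mock-transfected cells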
- experimental_parameters: CHO-K1 Gal4-RORA LBD luciferase reporter, at 10 µM, percent increase over mock-subtracted basal signal
Out of some 65,000 compounds screened, about 980 (1.5%) were called active.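 Rule for the calls: active = activation above the mean of all tested compounds plus 3 SD (cut at about 49% in these data); inactive = the rest.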 What follows is part of a selection rich in actives, with near analogues and random picks from the rest.
Assign a class; possible classes are 1 = active, -1 = inactive

Req: Could you kindly confirm the outcome this assay logged for CN(C)CCSc1nc(N)c2c3c(sc2n1)COC(C)(C)C3 ?
Resp: -1

Req: Item: CC(C)c1nc2oc3c(N4CCN(C)CC4)ncnc3c2c2c1CCC2
Resp: -1

Req: Again, but for Cc1noc(NS(=O)(=O)c2ccc(NC(=O)C34CCC(CC3)C4)cc2)c1C
Resp: -1

Req: Input Cc1cc(NC(=O)c2cnn3cccnc23)n(-c2ccccc2)n1
Resp: -1

Req: Consider next the compound COC(=O)C1=C(C)Nc2ncnn2C1c1ccco1 (stereo not given) in the same way.
Resp: -1

Req: Input O=C(Nc1ccc(Cl)cn1)c1cnn2cccnc12
Resp: 1

Req: Now try O=C(CSc1nnc(-c2cccs2)n1-c1ccccc1)NCc1ccco1 .
Resp: -1

Req: Let us now turn to O=C(Nc1nnc(CCc2ccccc2)s1)C1CCCO1 (stereo not given)
Resp: -1

Req: Moving on to N#C/C(=C1\CCCN1)c1nc(-c2ccccc2)cs1
Resp: -1

Req: Now give it for CCNC(=O)CN(c1ccc(C)cc1)S(=O)(=O)c1ccc(SC)cc1 too.
Resp: -1

Req: Queued: O=c1oc2cc(O)ccc2cc1-c1ccc(F)cc1
Resp: 1

Req: Could you do the same for COc1ccc(-c2cc3ccc(OCc4nn[nH]n4)cc3oc2=O)cc1 , please?
Resp: -1

Req: Now give it for O=C(Nc1cccc(-c2nnc(-c3ccccc3)o2)c1)C1CCCO1 (stereo not given) too.
Resp: 1

Req: Also check c1ccc2[nH]c(-c3nc4ccccc4[nH]3)nc2c1
Resp: -1

Req: Further, for CCS(=O)(=O)n1nc(-c2ccccc2)nc1SCc1ccccc1 ?
Resp: -1

Req: And CC(=O)Nc1ccc(NC(=O)CN2CCCC(C)C2)c(Cl)c1 (stereo not given) ?
Resp: -1

Req: Now the compound Nc1c(C(=O)NCc2ccccc2)nnn1Cc1cccc(Cl)c1
Resp: -1

Req: Record: CC(C)(C)c1ccc(C(=O)CSc2ncn[nH]2)cc1
Resp: 1

Req: Try this compound too: Oc1ccc(-c2csc(Nc3cccnc3)n2)cc1
Resp: -1

Req: How about Cc1ccc(C(=O)N2CCN(C3CCCCC3)CC2)s1 ?
Resp: -1

Req: Also need Cc1nnc(SCC(=O)Nn2cnnc2)s1 , thanks.
Resp: -1

Req: Continue with COCc1nnc(NC(=O)CS(=O)(=O)Cc2ccccc2)s1
Resp: -1

Req: Cc1cccc(-c2noc(-c3ccc(F)cc3)n2)c1 ?
Resp: -1

Req: Same question, CC(=O)Oc1ccc(C(=O)Nc2nccs2)cc1 this time
Resp: 1

Req: Now consider COc1ccc(N2C(=O)C3CCCN3C2c2cccc(OC)c2)cc1 (stereo not given) and answer again.
Resp: -1

Req: Same lookup for O=C(COC(=O)C12CC3CC(CC(C3)C1)C2)NCc1ccco1 , please.
Resp: -1

Req: Same lookup for CCOc1cc(S(=O)(=O)NCc2ccc3c(c2)OCO3)ccc1F , please.
Resp: -1

Req: Next compound: Cc1ccc(OCC(=O)Nc2ccc(-c3nnc(-c4ccco4)o3)cc2)cc1
Resp: -1

Req: Ok, now Clc1ccc(Nc2nc(-c3cccs3)cs2)nc1
Resp: -1

Req: Try COc1ccc(-n2ncc3c(N4CCCc5ccccc54)ncnc32)cc1 next.
Resp: 1

Req: What about this compound? COc1ccc(N2CCN(C(=O)CSc3ncnc4c3cnn4-c3ccc(OC)cc3)CC2)cc1
Resp: -1

Req: How about N#CC(=C1SC=CS1)c1nc(-c2ccccc2)cs1 ?
Resp: 1

Req: Next: C=CCOC(=O)C1=C(C)OC(N)=C(C#N)C1c1ccc(F)cc1 (stereo not given)
Resp: -1

Req: COc1ccc(-n2c(SC)nc(O)cc2=O)cc1 , same question.
Resp: -1

Req: Then this compound: COc1cc(C(=O)Nc2nccs2)cc(OC)c1OC
Resp: -1

Req: Let us now turn to c1ccc2c(NCC3CCCO3)nc(-c3ccncc3)nc2c1 (stereo not given)
Resp: -1

Req: Try this compound next: CCn1c(CSc2ncccn2)nnc1SCC(=O)N1c2ccccc2CC1C (stereo not given)
Resp: -1

Req: Try C=C(C)CSc1nc(N)c2c3c(sc2n1)CCC3 next.
Resp: 1

Req: Entry Cc1cccc(-n2ncc3c(N4CCc5ccccc54)ncnc32)c1 please
Resp: -1

Req: Moving on to the next compound: Cn1nnc(NC(=O)CSc2ncn[nH]2)n1
Resp: -1

---

- system_tested: Nuclear receptor ROR-alpha (Homo sapiens)
- assay_name: activators of orphan receptor RORA, primary screen, cell-based, luminescence (AID 560);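 note: 0% = DMSO-treated RORA cells and 100% = added signal equal to DMSO minus mock-transfected cells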
- experimental_parameters: CHO-K1 Gal4-RORA LBD luciferase reporter, at 10 µM, active compounds read high, percent increase over mock-subtracted basal signal
The campaign covered roughly 65,000 compounds. About 980 (1.5%) were called active. The entries come from a sample that favours actives as a whole.
endpoint_label: activation (%)
I only need the number, in %, no unit after it.

Req: Form field - read-out: activation; system: Nuclear receptor ROR-alpha (Homo sapiens); submitted item: c1ccc2c(c1)OCC(CNc1ncnc3nc[nH]c13)O2 (stereo not drawn)
Resp: 20.1

Req: Try this compound too: CCOCCCNS(=O)(=O)Cc1ccccc1
Resp: -16.2

Req: Now consider Cc1cccc(NC(=O)c2ccc3ccccc3n2)n1 and answer again.
Resp: 83

Req: What about O=C(Nc1ncccn1)c1cccs1 ?
Resp: -6.7

Req: Here is the next compound: COc1cc(OC)c(C(=O)Nc2ccc(N(C)C)cc2)cc1OC
Resp: 58.1

Req: Next: O=C(Nc1ccon1)c1cccc(Cl)c1
Resp: -2.3

Req: Moving on to the next compound: O=C(O)C1CCCCC1C(=O)Nc1ccc(Cl)cc1 (stereo not drawn)
Resp: -6.2

Req: Another: Cc1ccnc(NC(=O)c2ccc(NC(=O)c3ccco3)cc2)c1
Resp: 29.2

Req: For O=C(CSc1nc2ccccc2[nH]1)c1cccs1 then?
Resp: 56.5

Req: One more compound: COC(=O)c1ccc(NC(=O)c2ccco2)cc1
Resp: 77.4

Req: What do you have for O=C(Nc1ccc(Cl)cc1)c1ccsn1 ?
Resp: 59.5

Req: Now give it for Cc1cccc(NC(=O)COc2ccccc2C)n1 too.
Resp: -18.4

Req: How about this compound: CC1CCC(NC(=O)c2ccc(N3CCCC3=O)cc2)CC1 (stereo not drawn)
Resp: 61.7

Req: Similarly, N#Cc1nc(Cc2ccccc2)oc1NCCc1ccccc1 ?
Resp: 54.1

Req: And what about the compound Nc1ccc(-c2nnc(-c3ccc(-c4ccccc4)cc3)o2)cc1 ?
Resp: 60.7

Req: What would you report for Cn1nnc2cc(C(=O)NCCC3=CCCCC3)ccc21 ?
Resp: 18.1

Req: What about this compound? Brc1ccc(Nc2c3c(nc4ncnn24)CCC3)cc1
Resp: -16.4

Req: Consider next the compound Cn1c(=O)c(C(=O)Nc2ncccn2)c(O)c2ccccc21 in the same way.
Resp: 61

Req: Here is the next compound: Cn1c(=NC(=O)C2CC2)sc2cc(F)cc(F)c21
Resp: 27.7

Req: Request: CC(=O)Nc1cccc(NC(=O)c2c(-c3ccccc3)noc2C)c1
Resp: -6.7

Req: Try this compound next: COc1cc(OC)c(C(=O)NC2CCCCCC2)cc1OC
Resp: -17

Req: Queued: CCC(=O)NC(=Nc1nc2ccccc2s1)NC(=O)CC
Resp: 48.7

Req: And CCN(CC)C(=O)CSc1nnc(-c2cnccn2)n1-c1ccc(C)cc1 ?
Resp: 12

Req: // query: COc1cc(-c2nc(-c3ccncc3)no2)cc(OC)c1OC
Resp: 5.3

Req: Further, for O=C(Nc1ccc(-c2nnc(-c3ccccc3)o2)cc1)c1ccc(Br)o1 ?
Resp: 9.1

Req: Similarly, COC(=O)Cc1cc(=O)n(-c2nc3ccccc3s2)[nH]1 ?
Resp: -10.3

Req: Also O=C(Nc1nn(Cc2ccccc2F)cc1Br)c1cccs1 , if possible.
Resp: -5.3

Req: Query O=C(Cn1cc2c(n1)CCCCC2)NCCN1CCOCC1 next
Resp: -13.6

Where do the numbers come from? From PubChem BioAssay AID560.
